molecular target: T1, Biotinylated human TSLP (human, biotinylated); assay: SPR, biotinylated hTSLP on streptavidin chip; Example 14, Ac-(SEQ ID NO: 12)
T1 construct: also called hTSLP; thymic stromal lymphopoietin
T1 sequence (chain, as listed by the source limits assumed): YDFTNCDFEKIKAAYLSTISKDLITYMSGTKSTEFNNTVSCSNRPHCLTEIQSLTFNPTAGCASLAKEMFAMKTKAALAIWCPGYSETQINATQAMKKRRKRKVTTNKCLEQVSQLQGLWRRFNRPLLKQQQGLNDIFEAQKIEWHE
Measured Property: Kd (nM)
# unit: nM | format: bare number

Problem: What value of Kd has been reported for the following binder? CQWLEDCWRGXC (N-term acetyl; CQWLEDCWRG[4-ClPhe]C as printed; 3 Cys on TATA) [Example 14]
Result: 6

Entry source: patent US20220363718A1
